system: KB-VIN (vincristine-resistant KB cells, multi-drug resistant expressing P-glycoprotein); assay: in vitro cytotoxicity against human tumor cell replication, KB-VIN; type: cell-based; conditions: Homo sapiens, KBVIN, read-out: ED50 (the source's name)

mol: COC1=C(C)C(=O)C(=C(O)C=Cc2ccccc2OC)C(=O)C1(C)C
endpoint unit: µM
EC50: 8.45
//
mol: COC1=C(C)C(=O)C(=C(O)C=Cc2ccc(OC)cc2)C(=O)C1(C)C
endpoint unit: µM
EC50: 8.16
//
mol: COC1=C(C)C(=O)C(=C(O)C=Cc2ccc(O)cc2)C(=O)C1(C)C
endpoint unit: µM
EC50: 11.6
//
mol: COC1=C(C)C(=O)C(=C(O)C=Cc2cccc(OC)c2)C(=O)C1(C)C
endpoint unit: µM
EC50: 6.99
//
mol: COC1=C(C)C(=O)/C(=C(O)/C=C/c2ccccc2)C(=O)C1(C)C
endpoint unit: µM
EC50: 17.9
//
mol: COC1=C(C)C(=O)C(=C(O)C=Cc2ccc(Br)cc2)C(=O)C1(C)C
endpoint unit: µM
EC50: 4.84

* * *

test system: A549 (human lung carcinoma); assay: in vitro cytotoxicity against human tumor cell replication, A549; format: cell-based
Property: ED50; scope: individual compounds
assay endpoint: ED50 (µg/mL)

compound: CC1=C(O)C2=C(OC(c3ccccc3)CC2=O)C(C)(C)C1=O (centres unmarked) [Compound 11]
endpoint unit: µg/mL
result qualifier: =
measurement: 13.5
//
compound: CC1=C(O)C(C)(C)C(=O)/C(=C(O)\C=C\c2ccccc2)C1=O [Compound 12]
endpoint unit: µg/mL
result qualifier: =
measurement: 9.0
//
compound: CC1=C(O)C(C)(C)c2oc(-c3ccccc3)cc(=O)c2C1=O [Desmosdumotin B]
endpoint unit: µg/mL
result qualifier: =
measurement: 28.0
//
compound: COC1=CC(=O)c2c(oc(-c3ccccc3)cc2=O)C1(C)C [Compound 14]
endpoint unit: µg/mL
result qualifier: =
measurement: 2.0
//
compound: COC1=C(C)C(=O)C(=C(O)C=Cc2ccccc2)C(=O)C1(C)C [Compound 13]
endpoint unit: µg/mL
result qualifier: >
measurement: 5

* * *

test: in vivo; details: both sexes, Kunming, mouse, in vivo, Kunming mice, single vein injection, half male/half female; read-out: LD50 (95% CL)

mol: COC1=C(C)C(=O)/C(=C(O)/C=C/c2ccccc2)C(=O)C1(C)C
LD50: 39.8 to 53.1 mg/kg
